Tested on: johnsongrass (Sorghum halepense)
assay: Test D pre-/postemergence plant response
Type: in vivo
settings: Preemergence; 31 g ai/ha; scale 0 to 100 (0 no effect, 100 complete control)
measurement kind: Plant response rating, Johnsongrass
Reply with the value as a number alone.

Consider the following illustrative entries.
# given smiles, measurement kind, recorded result
data = [
    ("Cc1cc(-c2ccccc2Oc2ncc(Cl)cn2)on1", "Plant response rating, Johnsongrass", 10),
    ("FCc1cc(-c2c(F)cccc2Oc2ncc(Cl)cn2)no1", "Plant response rating, Johnsongrass", 10),
    ("FC(F)Oc1cccc(Oc2ncc(Cl)cn2)c1-c1cc(C(F)F)on1", "Plant response rating, Johnsongrass", 30),
    ("N#Cc1cccc(Oc2ncc(Cl)cn2)c1-c1cc(C(F)(F)F)on1", "Plant response rating, Johnsongrass", 5),
    ("COc1cccc(Oc2ncc(Cl)cn2)c1-c1cc(C(F)(F)F)no1", "Plant response rating, Johnsongrass", 20),
]

Req: Value lookup for Plant response rating, Johnsongrass; key = FC(F)c1cc(-c2c(Cl)cccc2Oc2ncc(Cl)cn2)on1
Resp: 55

Req: Value lookup for Plant response rating, Johnsongrass; key = FC(F)(F)c1cc(-c2ccccc2Oc2ncc(Cl)cn2)ncn1
Resp: 0

----------
Tested on: yellow nutsedge (Cyperus esculentus)
assay: Test D pre-/postemergence plant response
Type: in vivo
settings: Preemergence, 125 g ai/ha
measurement kind: Plant response rating (scale 0 to 100), Nutsedge, Yellow
Reply with the value as a number alone.

# given smiles, recorded result
measured = [
    ("COc1cccc(Oc2ncc(Cl)cn2)c1-c1cc(C(F)(F)F)no1", 0),
]

Req: Value lookup for Plant response rating (scale 0 to 100), Nutsedge, Yellow; key = Cc1cc(-c2c(F)cccc2Oc2ncc(Cl)cn2)on1
Resp: 45

Req: Value lookup for Plant response rating (scale 0 to 100), Nutsedge, Yellow; key = FC(F)c1cc(-c2c(Cl)cccc2Oc2ncc(Cl)cn2)no1
Resp: 25

Req: Value lookup for Plant response rating (scale 0 to 100), Nutsedge, Yellow; key = FC(F)(F)c1cc(-c2ccccc2Oc2ncc(Cl)cn2)ncn1
Resp: 15

Req: Value lookup for Plant response rating (scale 0 to 100), Nutsedge, Yellow; key = Fc1ccc(Oc2ncc(Cl)cn2)c(-c2cc(C(F)F)on2)c1F
Resp: 60

Req: Value lookup for Plant response rating (scale 0 to 100), Nutsedge, Yellow; key = FC(F)c1cc(-c2c(Cl)cccc2Oc2ncc(Cl)cn2)on1
Resp: 45

----------
Measured pest or weed control at 16 g/ha values are reported for all entries that follow.
Tested on: field violet (Viola arvensis)
assay: Test E pre-/postemergence plant response
Format: in vivo
settings: pre-emergence, 16 g ai/ha, Preemergence, scale 0 to 100, read-out: Plant response rating, Field Violet
Source text: […] Treated plants and controls were maintained in a controlled growth environment for 7 to 21 days after which time all species were compared to controls and visually evaluated. […]
Could you give me the number in %? Just the number is fine.

Consider the following illustrative entries.
# molecule, pest or weed control at 16 g/ha / %
rows = [
    ("Fc1cccc(Oc2ncc(Cl)cn2)c1-c1cc(C(F)F)on1 [Compound 55]", 70),
    ("Fc1cccc(Oc2ncc(Cl)cn2)c1-c1cc(C(F)(F)F)on1 [Compound 168]", 85),
    ("FC(F)c1cc(-c2ccccc2Oc2ncc(Br)cn2)no1 [Compound 62]", 0),
]

// next entry
Req: What value of pest or weed control at 16 g/ha on field violet (Viola arvensis) does Fc1cccc(Oc2ncc(Br)cn2)c1-c1cc(C(F)F)no1 [Compound 145] have?
Resp: 100

----------
System: johnsongrass (Sorghum halepense)
assay: Test D pre-/postemergence plant response
Format: in vivo
settings: Postemergence, 31 g ai/ha; scale 0 to 100 (0 no effect, 100 complete control)
measurement kind: Johnsongrass plant response rating
Reply with the value as a number alone.

Req: Value lookup for Johnsongrass plant response rating; key = Cn1nnc(-c2ccccc2Oc2ncc(Br)cn2)n1 [Compound 50]
Resp: 0

----------
Measured Plant response rating, Pigweed values are reported for all entries that follow.
Tested on: pigweed (Amaranthus retroflexus)
assay: Test B pre-/postemergence plant response
Format: in vivo
settings: Preemergence, 500 g ai/ha; 0 to 100 scale where 0 is no effect and 100 is complete control

Consider the following illustrative entries.
# compound, assay system, recorded result
records = [
    ("N#Cc1cccc(Oc2ncc(Br)cn2)c1-c1ccc(Cl)cn1 [Compound 204]", "pigweed (Amaranthus retroflexus)", 100),
    ("Cn1nnc(-c2ccccc2Oc2ncc(Cl)cn2)n1 [Compound 48]", "pigweed (Amaranthus retroflexus)", 100),
    ("N#Cc1cccc(Oc2ncc(Cl)cn2)c1-c1cc(C(F)(F)F)on1 [Compound 157]", "pigweed (Amaranthus retroflexus)", 100),
    ("N#Cc1cccc(Oc2ncc(F)cn2)c1-c1ccc(Cl)cn1 [Compound 207]", "pigweed (Amaranthus retroflexus)", 100),
]

// next entry
Req: Value lookup for Plant response rating, Pigweed; key = Cn1nncc1-c1ccccc1Oc1ncc(Cl)cn1 [Compound 52]
Resp: 50

----------
Test system: barnyardgrass (Echinochloa crus-galli)
assay: Test D flooded paddy test plant response
Type: in vivo
settings: Flood (flooded paddy test), 250 g ai/ha; visual rating on scale 0 to 100 (0 no effect, 100 complete control), 13 to 15 days
measurement kind: Plant response rating, Barnyardgrass
Reply with the value as a number alone.

Consider the following illustrative entries.
# given smiles, recorded result
records = [
    ("FC(F)(F)Oc1cccc(-c2ccccc2Oc2ncc(Cl)cn2)c1", 0),
    ("N#Cc1cccc(Oc2ncc(Cl)cn2)c1-c1cc(C(F)F)on1", 10),
]

Req: Value lookup for Plant response rating, Barnyardgrass; key = Clc1ccc(-c2ccccc2Oc2ncc(Cl)cn2)nc1
Resp: 0

Req: Value lookup for Plant response rating, Barnyardgrass; key = FC(F)c1cc(-c2ccccc2Oc2ncc(Cl)cn2)on1
Resp: 0

----------
Measured Plant response rating, Galium values are reported for all entries that follow.
Tested on: galium (catchweed bedstraw, Galium aparine)
assay: Test B postemergence plant response
Assay type: in vivo
settings: Postemergence, 1000 g ai/ha; 0 to 100 scale (0 no effect, 100 complete control)
Reply with the value as a number alone.

Req: What value of Plant response rating, Galium on galium (catchweed bedstraw, Galium aparine) does FCc1cc(-c2c(F)cccc2Oc2ncc(Cl)cn2)no1 have?
Resp: 90

Req: What value of Plant response rating, Galium on galium (catchweed bedstraw, Galium aparine) does COC(=O)c1cc(-c2ccccc2Oc2ncc(Cl)cn2)no1 have?
Resp: 0

Req: What value of Plant response rating, Galium on galium (catchweed bedstraw, Galium aparine) does Cc1cc(-c2ccccc2Oc2ncc(Cl)cn2)sn1 have?
Resp: 100

Req: What value of Plant response rating, Galium on galium (catchweed bedstraw, Galium aparine) does Fc1cnc(Oc2ccccc2-c2cc(Cl)sn2)nc1 have?
Resp: 100

Req: What value of Plant response rating, Galium on galium (catchweed bedstraw, Galium aparine) does CCOC(=O)c1cc(-c2ccccc2Oc2ncc(Cl)cn2)no1 have?
Resp: 0

Req: What value of Plant response rating, Galium on galium (catchweed bedstraw, Galium aparine) does O=Cc1cc(-c2c(Br)cccc2Oc2ncc(Cl)cn2)no1 have?
Resp: 10

Req: What value of Plant response rating, Galium on galium (catchweed bedstraw, Galium aparine) does Clc1cnc(Oc2ccccc2-c2ncns2)nc1 have?
Resp: 10

----------
Test system: small-flower umbrella sedge (Cyperus difformis)
assay: Test D flooded paddy test plant response
Assay type: in vivo
settings: Flood (flooded paddy test), 31 g ai/ha; visual rating on scale 0 to 100 (0 no effect, 100 complete control), 13 to 15 days
From the text: Plant species in the flooded paddy test consisted of rice (Oryza sativa), small-flower umbrella sedge (Cyperus difformis), ducksalad (Heteranthera limosa), and bamyardgrass (Echinochloa crus-galli) grown to the 2-leaf stage for testing. […] Treated plants and controls were maintained in a greenhouse for 13 to 15 days, after which time all species were compared to controls and visually evaluated. […]
Measured Plant response rating, Sedge, Umbrella values are reported for all entries that follow.

Req: Value lookup for Plant response rating, Sedge, Umbrella; key = CC(F)(F)c1cc(-c2ccccc2Oc2ncc(Cl)cn2)on1
Resp: 30

Req: Value lookup for Plant response rating, Sedge, Umbrella; key = Fc1cccc(Oc2ncc(Cl)cn2)c1-c1cc(C(F)F)on1
Resp: 75

----------
Test system: Italian ryegrass (Lolium multiflorum)
assay: Test D pre-/postemergence plant response
Assay type: in vivo
settings: Preemergence; 62 g ai/ha; scale 0 to 100 (0 no effect, 100 complete control)
Measured Plant response rating, Ryegrass, Italian values are reported for all entries that follow.

Consider the following illustrative entries.
# given smiles, Plant response rating, Ryegrass, Italian
data = [
    ("N#Cc1cccc(Oc2ncc(Cl)cn2)c1-c1cc(C(F)F)on1", 50),
    ("Cc1cc(-c2ccccc2Oc2ncc(Cl)cn2)no1", 0),
    ("FC(F)(Cl)c1cc(-c2ccccc2Oc2ncc(Cl)cn2)no1", 70),
    ("Clc1cnc(Oc2ccccc2-c2cc(C3CC3)on2)nc1", 15),
]

Req: Value lookup for Plant response rating, Ryegrass, Italian; key = FC(F)Oc1cccc(Oc2ncc(Cl)cn2)c1-c1cc(C(F)F)on1
Resp: 35
